From: ChEMBL document CHEMBL4184225

The compounds listed here are annotated with their log10 of MEC.
- TARGET_OR_TEST_SYSTEM: Toll-like receptor 7 (Homo sapiens)
- Sequence (whole entry): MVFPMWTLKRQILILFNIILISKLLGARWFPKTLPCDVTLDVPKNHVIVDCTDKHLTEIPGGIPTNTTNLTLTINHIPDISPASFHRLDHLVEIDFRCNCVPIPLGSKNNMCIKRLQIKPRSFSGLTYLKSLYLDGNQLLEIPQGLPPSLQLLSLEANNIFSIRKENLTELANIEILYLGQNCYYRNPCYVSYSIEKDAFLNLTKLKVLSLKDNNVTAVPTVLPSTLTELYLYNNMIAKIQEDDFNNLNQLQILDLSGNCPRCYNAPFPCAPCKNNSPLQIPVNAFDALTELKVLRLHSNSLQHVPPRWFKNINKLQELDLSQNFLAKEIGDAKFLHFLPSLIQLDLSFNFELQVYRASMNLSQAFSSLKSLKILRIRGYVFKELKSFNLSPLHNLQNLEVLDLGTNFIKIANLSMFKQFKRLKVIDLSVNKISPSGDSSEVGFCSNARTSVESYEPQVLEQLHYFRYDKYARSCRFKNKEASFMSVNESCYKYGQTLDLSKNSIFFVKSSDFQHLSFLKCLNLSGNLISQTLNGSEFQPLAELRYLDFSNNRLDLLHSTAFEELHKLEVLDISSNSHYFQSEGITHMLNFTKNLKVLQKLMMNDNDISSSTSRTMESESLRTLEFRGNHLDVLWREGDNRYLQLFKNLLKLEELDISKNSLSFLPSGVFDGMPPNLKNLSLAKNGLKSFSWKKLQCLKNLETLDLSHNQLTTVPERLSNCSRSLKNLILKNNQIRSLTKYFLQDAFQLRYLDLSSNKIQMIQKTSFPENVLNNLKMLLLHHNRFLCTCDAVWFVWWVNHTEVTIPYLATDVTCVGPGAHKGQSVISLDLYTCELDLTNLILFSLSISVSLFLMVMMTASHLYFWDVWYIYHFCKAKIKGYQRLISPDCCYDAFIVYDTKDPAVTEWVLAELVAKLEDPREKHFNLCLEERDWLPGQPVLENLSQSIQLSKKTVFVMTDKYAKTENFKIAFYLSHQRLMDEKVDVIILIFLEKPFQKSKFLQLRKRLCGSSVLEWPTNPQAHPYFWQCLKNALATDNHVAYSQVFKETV
- TEST_DETAILS: Agonist activity at human TLR7 expressed in HEK293 cells assessed as induction of receptor activation incubated for 6 hrs by NF-kappaB-luciferase reporter gene assay
- Assay type: cell-based
On a log10 scale: recorded MEC, unit µM.

Solved entries (count: 3):
CCCCNc1nc(N)nc2ccc(C(C)O)cc12 (centres undefined) :: 1.08
CCCCNc1nc(N)nc2ccc(OC)cc12 :: 0.75
CCCCNc1nc(N)nc2c(F)cccc12 :: -0.70

// query // returns reported log10 of MEC for input CCCCNc1nc(N)nc2cccc(OCc3nccc(OC)c3OC)c12
// result -1.52

// query Need log10 of MEC, item CCCCNc1nc(N)nc2cccc(C(=O)N[C@@H](C)c3ccccc3OC)c12
// result -0.55

// query State the recorded log10 of MEC for this entry: CCNc1nc(N)nc2ccccc12
// result 0.49

// query Please give the measured log10 of MEC for this compound: CCCCNc1nc(N)nc2cc(OC)ccc12
// result -0.05

// query Fill in: log10 of MEC of CCCCNc1nc(N)nc2cccc(C(=O)N[C@@H](C)c3cccc(OC)c3)c12 is ___
// result -0.43

// query Would you kindly share the measured log10 of MEC for CCCCNc1nc(N)nc2cccc(OCc3ccccc3OC)c12 ?
// result -0.57

// query # query: log10 of MEC of entry CCCCNc1nc(N)nc2cccc(C(=O)NC(C)C)c12
// result 0.31

// query Need log10 of MEC, item CCCCNc1nc(N)nc2ccc(CCc3ccc(N(C)C)cc3)cc12
// result -0.70

// query Can you share its log10 of MEC? I mean this compound: CCCCNc1nc(N)nc2cccc(CCc3ccccc3)c12
// result -0.89

// query For the compound shown here, CCCCNc1nc(N)nc2ccc(CO)cc12 , give the reported log10 of MEC.
// result -0.05

// query Requested read-out: log10 of MEC. Entry: CCCCNc1nc(N)ncc1OCC
// result 0.67

// query Using the record for CCCCNc1nc(N)nc2ccc(F)cc12 , report its log10 of MEC.
// result -0.52

// query log10 of MEC for CCCCNc1nc(N)nc2cc(OC)c(OC)cc12 ?
// result 1.00

// query Returns the measured log10 of MEC for the input compound. Input: CCCCNc1nc(N)nc2cccc(C)c12
// result -0.30

// query Given CCCCNc1nc(N)nc2cccc(C(=O)N(C)Cc3ccccc3)c12 , state its recorded log10 of MEC.
// result -0.28

// query Which measured log10 of MEC value corresponds to CCCCNc1nc(N)nc2cccc(OCCOC)c12 ?
// result -1.00

// query For the compound CCCCNc1nc(N)nc2cccc(OCc3ccccn3)c12 , what log10 of MEC is on record?
// result -0.31

* * *

- TARGET_OR_TEST_SYSTEM: Toll-like receptor 8 (Homo sapiens, UniProt Q9NR97)
- Sequence (Q9NR97 whole entry): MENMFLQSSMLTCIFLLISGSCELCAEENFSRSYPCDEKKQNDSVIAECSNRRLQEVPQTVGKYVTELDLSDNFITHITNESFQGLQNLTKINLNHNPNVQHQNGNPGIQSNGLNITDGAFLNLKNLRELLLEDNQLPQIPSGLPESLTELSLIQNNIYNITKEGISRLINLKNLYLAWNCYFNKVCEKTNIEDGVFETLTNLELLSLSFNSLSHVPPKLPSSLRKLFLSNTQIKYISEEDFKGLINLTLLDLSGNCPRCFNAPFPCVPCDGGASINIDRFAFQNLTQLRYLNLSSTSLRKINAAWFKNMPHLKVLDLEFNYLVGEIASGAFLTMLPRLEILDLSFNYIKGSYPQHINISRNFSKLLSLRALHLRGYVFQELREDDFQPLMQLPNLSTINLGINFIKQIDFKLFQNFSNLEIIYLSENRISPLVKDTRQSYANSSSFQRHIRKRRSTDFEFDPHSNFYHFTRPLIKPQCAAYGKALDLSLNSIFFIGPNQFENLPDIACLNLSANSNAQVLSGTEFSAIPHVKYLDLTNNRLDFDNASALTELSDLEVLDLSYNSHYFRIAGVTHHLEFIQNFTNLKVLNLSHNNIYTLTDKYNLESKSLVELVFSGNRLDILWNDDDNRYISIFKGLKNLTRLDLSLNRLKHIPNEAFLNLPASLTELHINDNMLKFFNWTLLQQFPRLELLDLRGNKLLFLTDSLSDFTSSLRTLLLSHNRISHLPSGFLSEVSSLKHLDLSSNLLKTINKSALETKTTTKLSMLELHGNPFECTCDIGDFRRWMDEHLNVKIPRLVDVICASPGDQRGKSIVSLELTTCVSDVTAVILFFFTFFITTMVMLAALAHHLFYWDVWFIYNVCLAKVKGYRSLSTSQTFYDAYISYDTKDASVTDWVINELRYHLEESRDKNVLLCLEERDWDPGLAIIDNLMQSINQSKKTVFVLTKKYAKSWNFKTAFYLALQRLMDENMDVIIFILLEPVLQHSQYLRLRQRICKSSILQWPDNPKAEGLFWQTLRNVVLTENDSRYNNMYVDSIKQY
- TEST_DETAILS: Agonist activity at human TLR8 expressed in HEK293 cells assessed as induction of receptor activation incubated for 6 hrs by NF-kappaB-luciferase reporter gene assay
- Type: cell-based
- CONDITION_DESCRIPTION: hek293, 6 h
PROPERTY_MEASURED: MEC (µM)
Express your answer in µM, writing the number without its unit.

CC(C)CCNc1nc(N)nc2ccccc12 :: 2.11
CCCCNc1nc(N)nc2cc(C(N)=O)ccc12 :: 2

Moving on to the next compound.
// query What value of MEC has been recorded for this entry: CCCCNc1nc(N)nc2cccc(C)c12
// result 0.3

* * *

Reported CC50 at 6 h values for the following molecules.
- TEST_DETAILS: Cytotoxic activity against HEK293 cells assessed as reduction in cell viability incubated for 6 hrs
- Format: cell-based
- CONDITION_DESCRIPTION: human

CCCCNc1nc(N)nc2cc(C(=O)N(C)C)ccc12 :: > 18 µM
CCCCNc1nc(N)nc2cccc(C(=O)N[C@@H](C)c3cccc(OC)c3)c12 :: > 25 µM

// next item, CC50 at 6 h requested
// query Name the recorded CC50 at 6 h for CCCCNc1nc(N)nc2cccc(C(=O)N[C@@H](C)c3ccccc3OC)c12 .
// result > 25 µM

* * *

- TARGET_OR_TEST_SYSTEM: Toll-like receptor 7 (Homo sapiens)
- TEST_DETAILS: Agonist activity at human TLR7 expressed in HEK293 cells assessed as induction of receptor activation incubated for 6 hrs by NF-kappaB-luciferase reporter gene assay
- Assay type: cell-based
PROPERTY_MEASURED: log10 MEC (log10 of the value in µM)
Log10 applied to MEC; unit prior to transform: µM.

Examples from the recorded data:
CCCCCNc1nc(N)nc2ccccc12 :: -1.22
CCCCNc1nc(N)nc2cccc(OCc3cccnc3)c12 :: -1.52
CCCCNc1nc(N)nc2ccccc12 :: -0.77

// query Look up log10 MEC with Toll-like receptor 7 (Homo sapiens) for this compound: CCCCNc1nc(N)nc2cccc(C(=O)NCc3ccccc3)c12
// result -1.22

// query Find log10 MEC (Toll-like receptor 7 (Homo sapiens)) for the entry COCCCNc1nc(N)nc2ccccc12
// result -0.34

// query Record CCCCNc1nc(N)nc2cccc(C(=O)N[C@H](C)c3ccccc3)c12 : what is its log10 MEC with Toll-like receptor 7 (Homo sapiens)?
// result 0.36

// query Fill in the recorded log10 MEC for this compound, with Toll-like receptor 7 (Homo sapiens) as test system: CCCCNc1nc(N)nc2cccc(C(=O)N[C@@H](C)c3ccccc3)c12
// result -1.05

// query What is its log10 MEC for Toll-like receptor 7 (Homo sapiens)? Entry: CCCCNc1nc(N)nc2cc(C(N)=O)ccc12
// result -0.40

// query Please state recorded log10 MEC (tested on Toll-like receptor 7 (Homo sapiens)) of CCCCNc1nc(N)nc2cc(CN(C)C)ccc12
// result -0.70

// query For Toll-like receptor 7 (Homo sapiens), provide log10 MEC of CCCCNc1nc(N)nc2cccc(OCc3ccccc3)c12 please.
// result -0.80

// query Give recorded log10 MEC with Toll-like receptor 7 (Homo sapiens) for the following compound: CCCCNc1nc(N)nc2cccc(Cl)c12
// result 0.00

// query Given the entry CCCCNc1nc(N)nc2cccc(C(=O)NC)c12 , what log10 MEC was observed with Toll-like receptor 7 (Homo sapiens)?
// result -0.46

// query Recall the recorded log10 MEC for CCCCNc1nc(N)nc2ccc(C(C)=O)cc12 with Toll-like receptor 7 (Homo sapiens) and state it.
// result 0.79

// query Item CCCCNc1nc(N)nc2cccc(C(=O)N(C)C(C)C)c12 with Toll-like receptor 7 (Homo sapiens) - log10 MEC?
// result 0.75

// query Request: log10 MEC, test system Toll-like receptor 7 (Homo sapiens), entry CCCCNc1nc(N)nc2cccc(OCc3ccc(CO)cc3OC)c12
// result -1.52

// query Recorded log10 MEC for CCCCNc1nc(N)nc2cc(C(=O)N(C)C)ccc12 with Toll-like receptor 7 (Homo sapiens), please?
// result -1.00

// query Fill in the recorded log10 MEC for this compound, with Toll-like receptor 7 (Homo sapiens) as test system: CCCCNc1nc(N)nc2cccc(CC3CCCC3)c12
// result -0.92
